System: MDCK cells
assay-info: Screening phospholipidosis assay (LipidTOX Red / NucBlue Live fluorescence ratio)
experimental-conditions: LipidTOX Red to NucBlue Live fluorescence ratio, 24 h, 15 μM
Use Criterion met when the recorded Ratio (15 μM) is no lower than 0.5; use Criterion not met when it is lower.

{"compound": "Cc1ccc(Cl)c(Nc2ccccc2C(=O)O)c1Cl", "class": "Criterion met"}
{"compound": "CN1CCc2c(c3ccccc3n2Cc2ccccc2)C1 [Mebhydrolin]", "class": "Criterion met"}
{"compound": "OC1(c2ccc(Cl)c(C(F)(F)F)c2)CCN(CCCC(c2ccc(F)cc2)c2ccc(F)cc2)CC1", "class": "Criterion met"}
{"compound": "Clc1cccc(Cl)c1N=C1NCCN1", "class": "Criterion not met"}
{"compound": "O=C(CCCN1CCN(c2ccccn2)CC1)c1ccc(F)cc1", "class": "Criterion not met"}
{"compound": "Cc1nc2sccn2c(=O)c1CCN1CCC(=C(c2ccc(F)cc2)c2ccc(F)cc2)CC1", "class": "Criterion not met"}

---

target-or-test-system: recombinant mouse LPLA2 (PLA2G15) (Mus musculus, UniProt Q8VEB4)
Construct: purchased Proteos Inc. (Kalamazoo, MI)
Sequence (Q8VEB4 34-412): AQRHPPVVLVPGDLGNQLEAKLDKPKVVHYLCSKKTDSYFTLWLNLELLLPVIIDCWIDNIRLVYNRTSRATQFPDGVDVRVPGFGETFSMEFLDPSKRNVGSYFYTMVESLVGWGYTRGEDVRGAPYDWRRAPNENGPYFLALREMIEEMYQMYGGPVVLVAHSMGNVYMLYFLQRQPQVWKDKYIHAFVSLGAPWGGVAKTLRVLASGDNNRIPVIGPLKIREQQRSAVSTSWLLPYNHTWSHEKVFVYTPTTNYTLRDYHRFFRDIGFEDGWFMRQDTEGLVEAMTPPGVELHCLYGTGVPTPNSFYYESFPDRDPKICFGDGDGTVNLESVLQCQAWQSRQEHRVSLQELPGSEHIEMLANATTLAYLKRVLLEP
assay-info: Transacylase activity of LPLA2 (1-O-acyl-N-acetylsphingosine synthase, cell-free liposome assay)
Type: biochemical
experimental-conditions: LPLA2 dependent 1-O-acyl N-acetylsphingosine synthase activity; read-out: LPLA2 IC50
pIC50: −log10 of the molar value.
Use met when the recorded pIC50 is no lower than 4; use not met when it is lower.

{"compound": "CCOC(=O)COc1ccc2c(C)c(CCN(CC)CC)c(=O)oc2c1Cl [Cloricromen]", "target-or-test-system": "recombinant mouse LPLA2 (PLA2G15) (Mus musculus, UniProt Q8VEB4)", "class": "not met"}
{"compound": "C[C@]12CCC(=O)C=C1CC[C@@H]1[C@@H]2[C@@H](O)C[C@@]2(C)[C@H]1CC[C@]2(O)C(=O)CO [Hydrocortisone]", "target-or-test-system": "recombinant mouse LPLA2 (PLA2G15) (Mus musculus, UniProt Q8VEB4)", "class": "not met"}
{"compound": "CN(Cc1ccc(C(C)(C)C)cc1)Cc1cccc2ccccc12 [Butenafine]", "target-or-test-system": "recombinant mouse LPLA2 (PLA2G15) (Mus musculus, UniProt Q8VEB4)", "class": "met"}
{"compound": "CC1(C)[C@@H](O)CC[C@]2(C)[C@H]3C(=O)C=C4[C@@H]5C[C@@](C)(C(=O)O)CC[C@]5(C)CC[C@@]4(C)[C@]3(C)CC[C@@H]12 [18 Beta-glycyrrhetinic acid]", "target-or-test-system": "recombinant mouse LPLA2 (PLA2G15) (Mus musculus, UniProt Q8VEB4)", "class": "not met"}
{"compound": "Cl.NCCc1ccc(O)c(O)c1 [3-Hydroxy-tyramine hydrochloride]", "target-or-test-system": "recombinant mouse LPLA2 (PLA2G15) (Mus musculus, UniProt Q8VEB4)", "class": "met"}
{"compound": "CN1CCc2c(c3ccccc3n2Cc2ccccc2)C1 [Mebhydrolin]", "target-or-test-system": "recombinant mouse LPLA2 (PLA2G15) (Mus musculus, UniProt Q8VEB4)", "class": "not met"}
{"compound": "O=C(O)[C@@H]1C[C@@H](C2CCCCC2)CN1C(=O)CP(=O)(O)CCCCc1ccccc1 [Fosinoprilat]", "target-or-test-system": "recombinant mouse LPLA2 (PLA2G15) (Mus musculus, UniProt Q8VEB4)", "class": "met"}
{"compound": "CCCCCCCCNC(C)C(O)c1ccc(SC(C)C)cc1 (stereo not drawn) [Suloctidil]", "target-or-test-system": "recombinant mouse LPLA2 (PLA2G15) (Mus musculus, UniProt Q8VEB4)", "class": "met"}
{"compound": "C[C@H]1[C@H]2CC[C@H]3[C@@H]4CC=C5C[C@@H](N(C)C)CC[C@]5(C)[C@H]4CC[C@]23CN1C [Conessin]", "target-or-test-system": "recombinant mouse LPLA2 (PLA2G15) (Mus musculus, UniProt Q8VEB4)", "class": "met"}
{"compound": "COCC(=O)O[C@]1(CCN(C)CCCc2nc3ccccc3[nH]2)CCc2cc(F)ccc2[C@@H]1C(C)C [Mibefradil]", "target-or-test-system": "recombinant mouse LPLA2 (PLA2G15) (Mus musculus, UniProt Q8VEB4)", "class": "met"}
{"compound": "CCN1CCCC1CNC(=O)c1cc(S(=O)(=O)CC)c(N)cc1OC (stereo not drawn) [Amisulpride]", "target-or-test-system": "recombinant mouse LPLA2 (PLA2G15) (Mus musculus, UniProt Q8VEB4)", "class": "not met"}
{"compound": "COc1cc(C(=O)OCCCN2CCCN(CCCOC(=O)c3cc(OC)c(OC)c(OC)c3)CC2)cc(OC)c1OC [Dilazep]", "target-or-test-system": "recombinant mouse LPLA2 (PLA2G15) (Mus musculus, UniProt Q8VEB4)", "class": "met"}
{"compound": "NC(=O)C1(N2CCCCC2)CCN(CCCC(=O)c2ccc(F)cc2)CC1 [Pipamperone]", "target-or-test-system": "recombinant mouse LPLA2 (PLA2G15) (Mus musculus, UniProt Q8VEB4)", "class": "not met"}
{"compound": "Cc1nc2sccn2c(=O)c1CCN1CCC(=C(c2ccc(F)cc2)c2ccc(F)cc2)CC1 [Ritanserin]", "target-or-test-system": "recombinant mouse LPLA2 (PLA2G15) (Mus musculus, UniProt Q8VEB4)", "class": "met"}
{"compound": "NCC1(CC(=O)O)CCCCC1 [Gabapentin]", "target-or-test-system": "recombinant mouse LPLA2 (PLA2G15) (Mus musculus, UniProt Q8VEB4)", "class": "met"}

---

Entries and their (ΔTm)c-(ΔTm)d, difference in melting temperature of LPLA2 alone or in the presence of drug values follow.
target-or-test-system: LPLA2 (Mus musculus, UniProt Q8VEB4)
Construct: purchased Proteos Inc. (Kalamazoo, MI)
Sequence (Q8VEB4 34-412): as above
assay-info: LPLA2 thermal stability measurement (SYPRO Orange Tm)
Format: binding
experimental-conditions: N=3 ± SD
readout-kind: (ΔTm)c-(ΔTm)d, difference in melting temperature of LPLA2 alone or in the presence of drug (°C)

{"compound": "CCOC(=O)COc1ccc2c(C)c(CCN(CC)CC)c(=O)oc2c1Cl [Cloricromen]", "quantity-unit": "°C", "data-value": 0.24}
{"compound": "O=C(O)c1ccccc1Nc1cccc(C(F)(F)F)c1 [Flufenamic acid]", "quantity-unit": "°C", "data-value": -0.62}
{"compound": "COc1ccnc(C[S+]([O-])c2nc3ccc(OC(F)F)cc3[nH]2)c1OC (centres unmarked) [Pantoprazole]", "quantity-unit": "°C", "data-value": 0.25}
{"compound": "CC[C@H](NC(=O)c1c(C)c(-c2ccccc2)nc2ccccc12)c1ccccc1 [sb222200]", "quantity-unit": "°C", "data-value": -1.20}
{"compound": "Cc1cc(C(C)(C)C)cc(C)c1CC1=NCCN1 [Xylometazoline]", "quantity-unit": "°C", "data-value": 0.66}

---

target-or-test-system: LPLA2 (Mus musculus, UniProt Q8VEB4)
Construct: purchased Proteos Inc. (Kalamazoo, MI)
assay-info: LPLA2 thermal stability measurement (SYPRO Orange Tm)
Format: binding
experimental-conditions: N=3 ± SD
// assign T if (ΔTm)c-(ΔTm)d, difference in melting temperature of LPLA2 alone or in the presence of drug falls strictly below 0 °C, else F (ties count as F)

{"compound": "NC[C@H]1O[C@H](O[C@H]2[C@H](O)[C@@H](O[C@H]3O[C@H](CO)[C@@H](O)[C@H](N)[C@H]3O)[C@H](N)C[C@@H]2N)[C@H](N)C[C@@H]1O", "class": "F"}
{"compound": "CSC(=N)N", "class": "T"}
{"compound": "CC(C)OC(=O)C(C)(C)Oc1ccc(C(=O)c2ccc(Cl)cc2)cc1 [Fenofibrate]", "class": "F"}
{"compound": "COc1ccc(C(=O)Nc2ccccc2CCC2CCCCN2C)cc1 (stereo not drawn) [Encainide]", "class": "T"}
{"compound": "Clc1ccccc1CNC[C@H]1CC[C@H](CNCc2ccccc2Cl)CC1", "class": "F"}
{"compound": "C1CCC(C(CC2CCCCN2)C2CCCCC2)CC1 (stereo not drawn)", "class": "T"}
{"compound": "CCCCNc1ccc(C(=O)OCCN(C)C)cc1", "class": "T"}
{"compound": "O=C1C(O)=C([C@H]2CC[C@H](c3ccc(Cl)cc3)CC2)C(=O)c2ccccc21", "class": "T"}
{"compound": "COc1cc(C(=O)NS(=O)(=O)c2ccccc2C)ccc1Cc1cn(C)c2ccc(NC(=O)OC3CCCC3)cc12", "class": "F"}
{"compound": "O=C1NCC2(CCN(CCc3ccccc3)CC2)O1 [Fenspiride]", "class": "T"}
{"compound": "Cc1ccc(Cl)c(Nc2ccccc2C(=O)O)c1Cl", "class": "T"}
{"compound": "c1ccc2c(c1)CCc1ccccc1C2", "class": "T"}
{"compound": "O=C(CCCN1CCC2(CC1)C(=O)NCN2c1ccccc1)c1ccc(F)cc1", "class": "F"}
{"compound": "COc1cc2nc(N3CCN(C(=O)c4ccco4)C4CCCCC43)nc(N)c2cc1OC (stereo not drawn)", "class": "F"}
